- Target Entity: cGMP-inhibited 3',5'-cyclic phosphodiesterase 3A (Homo sapiens)
- Method Summary: Inhibition of human recombinant PDE3A assessed as cGMP hydrolysis at 50 uM after 60 mins by fluorescence polarization assay using tetramethylrhodamine-tagged cGMP as substrate
The reader will find reported inhibition values listed item by item below.
Entry rule: numbers only, all in %.

Please fill in: inhibition reported for N#Cc1c(-c2ccsc2)cc(-c2ccc(Br)cc2)[nH]c1=O = -5

Please fill in: inhibition reported for CCOc1ccc(-c2cc(-c3ccc(Br)cc3)[nH]c(=O)c2C#N)cc1 = 10.8

Please fill in: inhibition reported for CCOc1ccccc1-c1cc(-c2ccc3c(c2)OCO3)[nH]c(=O)c1C#N = 14.4

Please fill in: inhibition reported for N#Cc1c(-c2ccsc2)cc(-c2ccc3c(c2)OCO3)[nH]c1=N = 3

====

- Target Entity: cGMP-inhibited 3',5'-cyclic phosphodiesterase 3A (Homo sapiens)
- Method Summary: Inhibition of human recombinant PDE3A assessed as cAMP hydrolysis at 50 uM after 60 mins by fluorescence polarization assay using fluorescein-tagged cAMP as substrate
Assign class by inhibition: not lower than 20% means 1; lower than 20% means 0.

CCOc1ccccc1-c1cc(-c2ccc(Br)cc2)[nH]c(=N)c1C#N = 1
CCOc1ccc(-c2cc(-c3ccc(Br)cc3)[nH]c(=N)c2C#N)cc1 = 1

Is inhibition at least 20%? Consider COc1ccccc1-c1cc(-c2ccc(Br)cc2)[nH]c(=O)c1C#N
0

Is inhibition at least 20%? Consider CCOc1ccccc1-c1cc(-c2ccc3c(c2)OCO3)[nH]c(=O)c1C#N
0

Is inhibition at least 20%? Consider CCOc1ccccc1-c1cc(-c2ccc(Br)cc2)[nH]c(=O)c1C#N
0

Is inhibition at least 20%? Consider N#Cc1c(-c2ccsc2)cc(-c2ccc(Br)cc2)[nH]c1=O
0

Is inhibition at least 20%? Consider N#Cc1c(-c2cccs2)cc(-c2ccc(Br)cc2)[nH]c1=O
0

Is inhibition at least 20%? Consider N#Cc1c(-c2ccsc2)cc(-c2ccc3c(c2)OCO3)[nH]c1=O
0

Is inhibition at least 20%? Consider COc1ccccc1-c1cc(-c2ccc3c(c2)OCO3)[nH]c(=O)c1C#N
1

====

- Target Entity: cGMP-inhibited 3',5'-cyclic phosphodiesterase 3A (Homo sapiens)
- Method Summary: Inhibition of human recombinant PDE3A assessed as cGMP hydrolysis after 60 mins by fluorescence polarization assay using tetramethylrhodamine-tagged cGMP as substrate
Value Kind: IC50 (µM)
Entry rule: numbers only, all in µM.

Summary line: CCOc1ccccc1-c1cc(-c2ccc(Br)cc2)nc(N)c1C#N , cGMP-inhibited 3',5'-cyclic phosphodiesterase 3A (Homo sapiens), reported IC50 = 27

====

- System: HT-29
- Method Summary: Growth inhibition of human HT-29 cells at 50 uM after 72 hrs by luminescent assay
- Format: functional
- Measurement Conditions: HT-29, 72 h, read-out: GI
Value Kind: inhibition of growth at 50 µM (%)
Entry rule: numbers only, all in %.

Record excerpt, results attached:
Cc1[nH]c(=O)c(C#N)cc1-c1ccncc1 [MILRINONE] = 0
N#Cc1c(-c2ccsc2)cc(-c2ccc(Br)cc2)[nH]c1=N = -5
COc1ccccc1-c1cc(-c2ccc(Br)cc2)[nH]c(=N)c1C#N = 75

Please fill in: inhibition of growth at 50 µM reported for CCOc1ccc(-c2cc(-c3ccc(Br)cc3)[nH]c(=O)c2C#N)cc1 = 10.7

Please fill in: inhibition of growth at 50 µM reported for CCOc1ccc(-c2cc(-c3ccc(Br)cc3)[nH]c(=N)c2C#N)cc1 = 75

====

- Target Entity: cGMP-inhibited 3',5'-cyclic phosphodiesterase 3A (Homo sapiens)
- Method Summary: Inhibition of human recombinant PDE3A assessed as cGMP hydrolysis at 50 uM after 60 mins by fluorescence polarization assay using tetramethylrhodamine-tagged cGMP as substrate
Assign class by inhibition: not lower than 40% means t; lower than 40% means f.

Solved entries (count: 3):
N#Cc1c(-c2ccsc2)cc(-c2ccc(Br)cc2)[nH]c1=N = t
CCOc1ccc(-c2cc(-c3ccc(Br)cc3)[nH]c(=N)c2C#N)cc1 = t
N#Cc1c(-c2cccs2)cc(-c2ccc(Br)cc2)[nH]c1=O = f

Is inhibition at least 40%? Consider COc1ccccc1-c1cc(-c2ccc3c(c2)OCO3)[nH]c(=N)c1C#N
f

Is inhibition at least 40%? Consider N#Cc1c(-c2cccs2)cc(-c2ccc3c(c2)OCO3)[nH]c1=O
t

Is inhibition at least 40%? Consider CCOc1ccc(-c2cc(-c3ccc4c(c3)OCO4)[nH]c(=N)c2C#N)cc1
f

Is inhibition at least 40%? Consider CCOc1ccccc1-c1cc(-c2ccc3c(c2)OCO3)[nH]c(=N)c1C#N
f

Is inhibition at least 40%? Consider Cc1[nH]c(=O)c(C#N)cc1-c1ccncc1
f

Is inhibition at least 40%? Consider N#Cc1c(-c2ccsc2)cc(-c2ccc3c(c2)OCO3)[nH]c1=O
f

Is inhibition at least 40%? Consider CCOc1ccc(-c2cc(-c3ccc4c(c3)OCO4)[nH]c(=O)c2C#N)cc1
f

Is inhibition at least 40%? Consider COc1ccccc1-c1cc(-c2ccc(Br)cc2)[nH]c(=O)c1C#N
f

Is inhibition at least 40%? Consider COc1ccccc1-c1cc(-c2ccc3c(c2)OCO3)[nH]c(=O)c1C#N
f

Is inhibition at least 40%? Consider CCOc1ccccc1-c1cc(-c2ccc(Br)cc2)[nH]c(=O)c1C#N
f

Is inhibition at least 40%? Consider N#Cc1c(-c2cccs2)cc(-c2ccc3c(c2)OCO3)[nH]c1=N
f

Is inhibition at least 40%? Consider CCOc1ccccc1-c1cc(-c2ccc(Br)cc2)[nH]c(=N)c1C#N
t

====

- Target Entity: cGMP-inhibited 3',5'-cyclic phosphodiesterase 3A (Homo sapiens, UniProt Q14432)
- Sequence (Q14432 whole entry): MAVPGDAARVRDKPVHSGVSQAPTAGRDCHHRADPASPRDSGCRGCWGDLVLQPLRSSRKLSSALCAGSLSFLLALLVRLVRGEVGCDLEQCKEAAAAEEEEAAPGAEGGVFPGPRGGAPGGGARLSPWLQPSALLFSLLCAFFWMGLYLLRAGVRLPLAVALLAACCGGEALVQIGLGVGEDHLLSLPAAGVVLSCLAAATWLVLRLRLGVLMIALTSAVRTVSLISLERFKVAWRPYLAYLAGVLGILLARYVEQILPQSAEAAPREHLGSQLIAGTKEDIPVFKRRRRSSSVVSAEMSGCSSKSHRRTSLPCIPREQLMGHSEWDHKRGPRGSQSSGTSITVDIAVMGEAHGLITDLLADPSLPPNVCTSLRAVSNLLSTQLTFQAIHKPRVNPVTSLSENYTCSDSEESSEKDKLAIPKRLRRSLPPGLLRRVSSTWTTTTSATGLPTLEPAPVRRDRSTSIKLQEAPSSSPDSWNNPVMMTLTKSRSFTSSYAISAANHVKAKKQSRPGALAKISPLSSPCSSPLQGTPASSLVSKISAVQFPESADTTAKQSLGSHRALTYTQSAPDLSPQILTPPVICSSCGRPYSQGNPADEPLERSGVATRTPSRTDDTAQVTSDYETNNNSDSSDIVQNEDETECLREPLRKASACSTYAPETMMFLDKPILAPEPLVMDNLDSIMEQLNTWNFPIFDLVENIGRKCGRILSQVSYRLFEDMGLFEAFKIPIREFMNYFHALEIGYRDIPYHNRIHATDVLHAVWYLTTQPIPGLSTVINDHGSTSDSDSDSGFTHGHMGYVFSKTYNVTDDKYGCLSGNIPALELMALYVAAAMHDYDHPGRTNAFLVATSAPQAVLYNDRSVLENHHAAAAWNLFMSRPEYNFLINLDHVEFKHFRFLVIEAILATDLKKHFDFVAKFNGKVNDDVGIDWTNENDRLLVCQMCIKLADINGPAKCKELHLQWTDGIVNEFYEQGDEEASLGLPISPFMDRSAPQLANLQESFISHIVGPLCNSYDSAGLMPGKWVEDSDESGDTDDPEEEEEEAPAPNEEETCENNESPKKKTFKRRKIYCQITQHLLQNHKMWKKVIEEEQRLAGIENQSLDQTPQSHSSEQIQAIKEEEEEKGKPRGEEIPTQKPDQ
- Method Summary: Inhibition of human recombinant PDE3A assessed as cAMP hydrolysis at 50 uM after 60 mins by fluorescence polarization assay using fluorescein-tagged cAMP as substrate
The reader will find reported inhibition values listed item by item below.
Entry rule: numbers only, all in %.

CCOc1ccccc1-c1cc(-c2ccc3c(c2)OCO3)[nH]c(=N)c1C#N = 19
COc1ccccc1-c1cc(-c2ccc3c(c2)OCO3)[nH]c(=N)c1C#N = 45
COc1ccccc1-c1cc(-c2ccc(Br)cc2)[nH]c(=N)c1C#N = 16.3
N#Cc1c(-c2ccsc2)cc(-c2ccc3c(c2)OCO3)[nH]c1=N = 18
N#Cc1c(-c2ccsc2)cc(-c2ccc(Br)cc2)[nH]c1=N = 1.5

Summary line: CCOc1ccc(-c2cc(-c3ccc4c(c3)OCO4)[nH]c(=N)c2C#N)cc1 , cGMP-inhibited 3',5'-cyclic phosphodiesterase 3A (Homo sapiens, UniProt Q14432), reported inhibition = 45.9

Summary line: Cc1[nH]c(=O)c(C#N)cc1-c1ccncc1 [MILRINONE] , cGMP-inhibited 3',5'-cyclic phosphodiesterase 3A (Homo sapiens, UniProt Q14432), reported inhibition = 77

Summary line: CCOc1ccc(-c2cc(-c3ccc(Br)cc3)[nH]c(=O)c2C#N)cc1 , cGMP-inhibited 3',5'-cyclic phosphodiesterase 3A (Homo sapiens, UniProt Q14432), reported inhibition = 4.76

Summary line: N#Cc1c(-c2cccs2)cc(-c2ccc(Br)cc2)[nH]c1=N , cGMP-inhibited 3',5'-cyclic phosphodiesterase 3A (Homo sapiens, UniProt Q14432), reported inhibition = 3.57

Summary line: CCOc1ccc(-c2cc(-c3ccc4c(c3)OCO4)[nH]c(=O)c2C#N)cc1 , cGMP-inhibited 3',5'-cyclic phosphodiesterase 3A (Homo sapiens, UniProt Q14432), reported inhibition = 10.5

Summary line: N#Cc1c(-c2cccs2)cc(-c2ccc3c(c2)OCO3)[nH]c1=N , cGMP-inhibited 3',5'-cyclic phosphodiesterase 3A (Homo sapiens, UniProt Q14432), reported inhibition = 5

Summary line: N#Cc1c(-c2cccs2)cc(-c2ccc3c(c2)OCO3)[nH]c1=O , cGMP-inhibited 3',5'-cyclic phosphodiesterase 3A (Homo sapiens, UniProt Q14432), reported inhibition = 32.3

====

- System: HT-29
- Method Summary: Growth inhibition of human HT-29 cells at 50 uM after 72 hrs by luminescent assay
- Assay type: functional
- Measurement Conditions: HT-29, 72 h, read-out: GI
The reader will find reported inhibition of growth at 50 µM values listed item by item below.
Entry rule: numbers only, all in %.

Record excerpt, results attached:
N#Cc1c(-c2cccs2)cc(-c2ccc3c(c2)OCO3)[nH]c1=N = -20
N#Cc1c(-c2cccs2)cc(-c2ccc3c(c2)OCO3)[nH]c1=O = 6.14
COc1ccccc1-c1cc(-c2ccc3c(c2)OCO3)[nH]c(=N)c1C#N = 95
N#Cc1c(-c2cccs2)cc(-c2ccc(Br)cc2)[nH]c1=O = -20
N#Cc1c(-c2ccsc2)cc(-c2ccc3c(c2)OCO3)[nH]c1=N = 45
COc1ccccc1-c1cc(-c2ccc3c(c2)OCO3)[nH]c(=O)c1C#N = 0
CCOc1ccc(-c2cc(-c3ccc4c(c3)OCO4)[nH]c(=N)c2C#N)cc1 = 87.7
CCOc1ccccc1-c1cc(-c2ccc(Br)cc2)[nH]c(=O)c1C#N = 2.81

Summary line: N#Cc1c(-c2ccsc2)cc(-c2ccc3c(c2)OCO3)[nH]c1=O , HT-29, reported inhibition of growth at 50 µM = -25
